Reference source for all entries: PubChem BioAssay

# PROCEDURE_SUMMARY: growth effects on S. cerevisiae YJM789 – YJM789 clinical isolate, OD600, 24 h, basal, primary screen (AID 1089);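 also: growth of clinical yeast isolate S. cerevisiae YJM 789 seeded 1000 cells per well; test concentration not given here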
# STUDY_CONDITIONS: higher = more signal, called active from +8 up or from −8 down
Rule: Met for z-score not less than -0.8, Not met for anything less.

Recorded results for 3 molecules are shown here.
# MOLECULE, CLASS
records = [
    ("CC(=O)NCCCC[C@@H]1NC(=O)[C@H]2C[C@@H](C(=O)NCCCCCN)[C@@H](c3cccc(OCCO)c3)N2C1=O", "Not met"),
    ("C=C(COC)/C(=C/C[C@@H](OC(=O)c1ccncc1)c1cccc(OCCO)c1)c1cc(C(=O)OC)ccc1OC", "Not met"),
    ("CC(C)CCC[C@@H](C)[C@H]1CC[C@@]2(C)C3=C(CC[C@]12C)[C@@]1(C)CC[C@H](OC(=O)C(C)(C)C)C(C)(C)C1CC3 (stereo partly specified)", "Not met"),
]

Query :: Does z-score meet or surpass -0.8 for `C=CCOC(=O)[C@@H]1[C@H]2C(=O)O[C@H](c3ccccc3)[C@H](c3ccccc3)N2[C@H](c2ccc(OCCOC(=O)[C@@H]3C[C@@H]4C(=O)N5CCC[C@H]5C(=O)N4[C@@H]3c3cccc(OCCO)c3)cc2)[C@@]12C(=O)Nc1ccc(I)cc12` ?
Result :: Met

Query :: Try the molecule CC1CC/C=C\[C@H]2OC34C=CCN(Cc5ccccc5)C(=O)[C@H]3N(CCO)C(=O)[C@@H]4C2C(=O)O1 (stereo partly specified)
Result :: Met

###

This section presents compounds with their documented composite z-score values.
# Tested on: Neuregulin-1 EGF-like domain
# PROCEDURE_SUMMARY: small molecules binding NRG1 EGF domain – biochemical, small-molecule microarray, 635 nm fluorescence, primary screen (AID 1081);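 also: binding of the protein to compounds printed on small-molecule microarray slides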
# STUDY_CONDITIONS: higher = more signal
Reply: number alone, nothing else.

Worked examples, 5 compounds total:
# COMPOUND, composite z-score
rows = [
    ("COCCCNC(=O)[C@]1(CCS(=O)(=O)c2ccccc2)N=C(c2ccc(OCCCO)cc2)O[C@@H]1c1ccccc1", 1.22),
    ("C#CCOC(=O)N[C@H](C=CCCCC)c1ccccc1", 1.31),
    ("O=C1O[C@H](c2ccccc2)[C@H](c2ccccc2)N2[C@H]1[C@@H](C(=O)N1CCN(c3ncccn3)CC1)[C@]1(C(=O)Nc3ccc(C#CCCO)cc31)[C@H]2c1ccc(OCCO)cc1", 0.995),
    ("C[N+](C)(C)CCCC[C@@H]1NC(=O)[C@H]2C[C@@H](C(=O)NCCCCCCN)[C@@H](c3cccc(OCCO)c3)N2C1=O", 1.49),
    ("O=C1CSC(c2cccc([N+](=O)[O-])c2)N1c1ccccc1 (stereo not drawn)", 0.979),
]

Query :: Would you kindly share the measured composite z-score for `CC(C)NC(=O)[C@@H]1c2ccccc2C(=O)N(Cc2cc(C(F)(F)F)cc(C(F)(F)F)c2)[C@H]1c1ccc(CO)cc1` ?
Result :: 0.663

Query :: Try the compound `CCC[C@@H]1C[C@@]1(CCC)[C@@H](NC(=O)c1cccs1)c1ccc(Cl)cc1`
Result :: -0.405

Query :: Try the compound `COc1ccc([Si](C)(C)[C@@H]2[C@@H](CC(=O)N3Cc4ccccc4C[C@H]3CO)O[C@]3(C(=O)N(Cc4cccc(N5CCCCC5=O)c4)c4ccccc43)[C@H]2C)cc1`
Result :: 0.899

###

This section presents compounds with their documented composite z-score values.
# MEASURED_TARGET: Dihydroorotate dehydrogenase (quinone), mitochondrial (Plasmodium falciparum (isolate 3D7)) (UniProt Q08210)
# Sequence (Q08210 whole entry, looked up): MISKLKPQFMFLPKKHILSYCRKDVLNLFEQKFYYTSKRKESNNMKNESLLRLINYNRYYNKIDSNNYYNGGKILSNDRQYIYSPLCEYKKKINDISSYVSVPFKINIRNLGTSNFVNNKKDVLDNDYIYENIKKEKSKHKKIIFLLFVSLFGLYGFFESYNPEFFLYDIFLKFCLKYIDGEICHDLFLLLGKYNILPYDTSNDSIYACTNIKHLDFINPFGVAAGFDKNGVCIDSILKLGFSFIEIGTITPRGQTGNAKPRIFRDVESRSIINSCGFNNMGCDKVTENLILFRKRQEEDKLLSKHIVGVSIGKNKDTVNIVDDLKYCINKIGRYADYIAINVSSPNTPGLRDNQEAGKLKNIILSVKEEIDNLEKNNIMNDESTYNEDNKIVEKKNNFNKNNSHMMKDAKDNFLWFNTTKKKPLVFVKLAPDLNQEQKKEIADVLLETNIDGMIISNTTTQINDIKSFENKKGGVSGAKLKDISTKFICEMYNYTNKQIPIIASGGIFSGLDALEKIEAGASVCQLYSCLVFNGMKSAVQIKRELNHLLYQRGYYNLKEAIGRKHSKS
# PROCEDURE_SUMMARY: inhibition of P. falciparum DHODH – biochemical, C-terminal His tag, absorbance 600 nm, primary screen (AID 1175);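 also: recombinant parasite enzyme with a five histidine tag at its C terminus; test concentration not given here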
# STUDY_CONDITIONS: PfDHODH enzyme, DCIP absorbance 600 nm; higher = more signal, called active from +8 up or from −8 down
Reply: number alone, nothing else.

Worked examples, 10 compounds total:
# COMPOUND, REPORTED_VALUE
records = [
    ("OCCCC1=CC(c2cccs2)N(Cc2cccc(OC(F)(F)F)c2)CC1 (configuration not stated)", -1.3),
    ("COCCOC(=O)N1C(=O)[C@@]2(c3ccccc31)[C@H](c1ccccc1OCCO)N1[C@H](c3ccccc3)[C@H](c3ccccc3)OC(=O)[C@H]1[C@@H]2C(=O)N1CCc2cc(OC)c(OC)cc2C1", 0.301),
    ("CC(C)CNC(=O)[C@@]1(c2ccc([N+](=O)[O-])cc2)CC(=O)N(C(C)C)[C@@H]1c1ccc(CO)cc1", 1.14),
    ("CO[C@H]1O[C@H](CO)[C@@H](OC(=O)Nc2ccc(C(F)(F)F)cc2)[C@H](OC(=O)Nc2ccccc2)[C@H]1OC(=O)Nc1ccccc1", 0.0214),
    ("COCCOC(=O)N1C(=O)[C@@]2(c3cc(C#CC4(O)CCCCCC4)ccc31)[C@H](C(=O)N1CCN(c3ncccn3)CC1)[C@H]1C(=O)O[C@H](c3ccccc3)[C@H](c3ccccc3)N1[C@@H]2c1ccc(O)cc1", 0.59),
    ("NC(=O)NCC#Cc1ccc2c(c1)[C@]1(C(=O)N2)[C@H](c2ccc(O)cc2)N2[C@H](c3ccccc3)[C@H](c3ccccc3)OC(=O)[C@H]2[C@@H]1C(=O)NC[C@H](O)c1ccccc1", -0.494),
    ("COCCOC(=O)N1C(=O)[C@@]2(c3ccccc31)[C@H](c1ccc(OCCO)cc1)N1[C@H](c3ccccc3)[C@H](c3ccccc3)OC(=O)[C@H]1[C@@H]2C(=O)NC[C@H](O)c1ccccc1", -1.93),
    ("COCCOC(=O)N1C(=O)[C@@]2(c3cc(C#Cc4ccc(OC)cc4)ccc31)[C@H](c1ccc(OCCO)cc1)N1[C@H](c3ccccc3)[C@H](c3ccccc3)OC(=O)[C@H]1[C@@H]2C(N)=O", -0.675),
    ("COC(=O)[C@@]1(Cc2ccc(OC)cc2)[C@H]2c3cc(C(=O)N(C)C)n(Cc4cc(F)c(F)c(F)c4)c3C[C@H]2CN1C(=O)c1ccccc1", -2.65),
    ("CN(C)CCCN1C(=O)[C@@]2(Cc3ccccc31)c1ccccc1C(=O)N(Cc1ccccc1)[C@H]2c1ccc(CO)cc1", -6.03),
]

Query :: Would you kindly share the measured composite z-score for `CCOC(=O)C1=CC[C@@H](c2ccccc2)N(S(=O)(=O)c2ccc(C)cc2)[C@H]1C=C(C)C` ?
Result :: 0.274

Query :: Try the compound `COC(=O)C(CC#Cc1ccc2c(c1)[C@]1(C(=O)N2)[C@H](C(=O)N2CCc3cc(OC)c(OC)cc3C2)[C@H]2C(=O)O[C@H](c3ccccc3)[C@H](c3ccccc3)N2[C@@H]1c1ccc(OCCO)cc1)C(=O)OC`
Result :: -6.24

Query :: Try the compound `CC(C)(C)OC(=O)CC[C@]1(C(=O)O)COC(c2ccc(OCCCO)cc2)=N1`
Result :: -0.055

###

# PROCEDURE_SUMMARY: S. pombe growth modifiers, basal conditions – strain 972, OD600, 24 h, no modulator, primary screen (AID 1090);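 also: basal condition with compound alone and no growth modifier present; test concentration not given here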
# STUDY_CONDITIONS: S. pombe 972 growth, higher = more signal, called active from +8 up or from −8 down
Rule: true (1) for z-score not less than -0.6, false (0) for anything less.

Recorded results for 4 compounds are shown here.
# COMPOUND, CLASS
rows = [
    ("O=C1O[C@H](c2ccccc2)[C@H](c2ccccc2)N2[C@H]1[C@@H](C(=O)N1CCCCCCC1)[C@]1(C(=O)Nc3ccc(C#CCCO)cc31)[C@H]2c1ccc(OCCO)cc1", "true (1)"),
    ("O=c1c2ccc(Br)cc2nc(-c2ccccc2)n1Cc1cccc(O)c1", "false (0)"),
    ("C=C(/C(=C/C[C@@H](OC(=O)c1ccncc1)c1ccccc1OCCO)c1cnc2ccccc2c1)C(C)C", "false (0)"),
    ("Cc1ccc(F)cc1S(=O)(=O)N[C@@H]1CCN(C(=O)c2ccc(OC(C)C)cc2)C1", "false (0)"),
]

Query :: Does z-score meet or surpass -0.6 for `CCCC=C(CCC)[C@@H](NC(=O)Cc1ccccc1)c1ccc(C(=O)OC)cc1` ?
Result :: true (1)

Query :: Try the compound `C[N+](C)(C)CCCCNC(=O)[C@H]1C[C@H]2C(=O)NCC(=O)N2[C@H]1c1ccc(O)cc1`
Result :: true (1)

Query :: Try the compound O=C1NC(=O)C2C1C=CC(C(O)CCc1ccccc1)N2Nc1ccccn1 (stereo not drawn)
Result :: true (1)

###

# MEASURED_TARGET: Pro-neuregulin-1, membrane-bound isoform (Homo sapiens) (UniProt Q02297)
# Sequence (Q02297 whole entry, looked up, canonical isoform): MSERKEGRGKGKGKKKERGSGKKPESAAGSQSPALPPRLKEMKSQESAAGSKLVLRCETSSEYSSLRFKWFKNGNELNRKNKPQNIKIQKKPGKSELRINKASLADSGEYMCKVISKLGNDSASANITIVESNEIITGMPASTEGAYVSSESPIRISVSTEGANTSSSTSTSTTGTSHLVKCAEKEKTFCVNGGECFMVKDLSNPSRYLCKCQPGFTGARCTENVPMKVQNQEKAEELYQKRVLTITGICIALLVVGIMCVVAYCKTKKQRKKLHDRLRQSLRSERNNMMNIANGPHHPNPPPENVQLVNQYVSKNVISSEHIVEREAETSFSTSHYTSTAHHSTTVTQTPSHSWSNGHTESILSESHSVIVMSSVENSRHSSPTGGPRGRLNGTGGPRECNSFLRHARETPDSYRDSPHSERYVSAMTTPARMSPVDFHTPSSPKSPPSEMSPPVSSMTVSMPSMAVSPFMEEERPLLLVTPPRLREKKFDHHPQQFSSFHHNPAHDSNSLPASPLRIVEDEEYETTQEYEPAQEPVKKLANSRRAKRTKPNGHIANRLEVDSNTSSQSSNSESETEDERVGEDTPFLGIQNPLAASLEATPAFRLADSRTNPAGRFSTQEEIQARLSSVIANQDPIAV
# PROCEDURE_SUMMARY: small molecules binding neuregulin-1 protein – biochemical, small-molecule microarray, fluorescence 635/667, psychiatric disease protein project, primary screen (AID 1075);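 also: score combines 667 nm spot fluorescence with signal to noise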
# STUDY_CONDITIONS: NRG1 binding, 635 nm fluorescence, higher = more signal
Rule: yes (1) for composite z-score not less than 1, no (0) for anything less.

# COMPOUND, CLASS
rows = [
    ("COCCCNC(=O)[C@@]1(Cc2ccccc2N=[N+]=[N-])N=C(c2ccc(OCCCO)cc2)O[C@H]1c1ccccc1CN=[N+]=[N-]", "yes (1)"),
    ("COCCCNC(=O)[C@@]1(C)c2ccccc2C(=O)N(c2ccc(C)cn2)[C@H]1c1ccc(CO)cc1", "no (0)"),
    ("C=C(COC)C(=O)CC[C@H](OC(=O)c1ccccc1-c1ccccc1C(=O)O)c1ccc(CO)o1", "no (0)"),
]

Query :: Does composite z-score meet or surpass 1 for CCCCC(CC)C(O)C1C=CC2C(=O)NC(=O)C2N1Nc1ccccn1 (stereo not drawn) ?
Result :: yes (1)

Query :: Try the compound `C=C(/C(=C/C[C@@H](OC(=O)c1ccncc1)c1ccccc1OCCO)c1cnc2ccccc2c1)C(C)C`
Result :: yes (1)

Query :: Try the compound `CC(C)(C)OC(=O)CC[C@@]1(C(=O)N2CCCCC2)N=C(c2ccc(OCCCO)cc2)O[C@@H]1c1ccccc1N=[N+]=[N-]`
Result :: yes (1)

Query :: Try the compound C=C(C)[C@@H]1CC=C(C(O)C2C=CC3C(=O)N(C4CCCCC4)C(=O)C3N2Nc2ccc(OC)cc2)CC1 (stereo partly drawn)
Result :: yes (1)

Query :: Try the compound C=CCC(OC(C)=O)[C@@H]1[C@@H](N(Cc2ccc(-c3ccccc3)cc2)C(=O)Cc2ccc(OC)cc2)c2cc(OCCCO)ccc2N1C(=O)c1ccc(-c2ccccc2)cc1 (stereo partly drawn)
Result :: no (0)
